Molecular target: KRas G12D/Q61H double mutant (Homo sapiens (Human), UniProt P01116, G12D/Q61H)
Sequence (P01116-2 other isoform, or with tags, fused parts or gaps G12D/Q61H): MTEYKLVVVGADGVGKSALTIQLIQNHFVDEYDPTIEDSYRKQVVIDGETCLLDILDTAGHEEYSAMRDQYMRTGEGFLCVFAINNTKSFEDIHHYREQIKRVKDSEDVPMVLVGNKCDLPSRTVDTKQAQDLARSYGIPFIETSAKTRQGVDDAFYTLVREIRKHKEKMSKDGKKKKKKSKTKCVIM
Assay: Ras GTP binding domain inhibition assay (labeled GTP)
Details: 20 μM compound; KRas G12D/Q61H double mutant; read-out: % Inhibition at 20 μM of K-Ras mutant and wild-type protein, KRas G12D Q61H
Description: Buffer-I: • 50 mM Tris, pH 7.5 • 150 mM NaCl (optional) • 1 mM MgCl2 • 1 mM DTT. • KRas G12D mutant protein was expressed as a His-tagged protein. […] Then 22 μl of Cy3-GTP or Cy5-GTP was added to each well. The labeled GTP was incubated for 45 min. at room temperature. • Following GTP incubation, wells were washed 3× in Buffer-I, and 200 μl of Buffer-I were added to each well. • Following washes, the amount of bound labeled-GTP was measured with an Eppendorf AF2200 plate reader. […]
Recorded inhibition at 20 µM, one value per entry.

Requested read-out: inhibition at 20 µM. Entry: Cc1ccccc1N(CC(=O)NCC1CCCCCC1)S(C)(=O)=O
1 to 25%

Returns the measured inhibition at 20 µM for the input compound. Input: O=C(COC1CCCCC1)Nc1nnc(-c2ccccn2)[nH]1
51 to 75%

# get_value(readout='inhibition at 20 µM', item= Nc1nc(-c2ccccn2)nc(C(=O)NCCc2ccncc2)c1Oc1ccccc1 [drawing 3551] )
25 to 50%

----------
molecular target: KRas wild type (Homo sapiens (Human)); assay: Scintillation Proximity Assay (SPA), GTP affinity for binding domain
Sequence (P01116-2 other isoform, or with tags, fused parts or gaps): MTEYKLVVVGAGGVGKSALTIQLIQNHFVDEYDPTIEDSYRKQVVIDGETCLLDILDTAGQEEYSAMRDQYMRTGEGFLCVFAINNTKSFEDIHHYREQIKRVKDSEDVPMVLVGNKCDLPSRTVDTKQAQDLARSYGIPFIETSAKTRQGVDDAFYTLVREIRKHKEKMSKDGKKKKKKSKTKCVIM
MEASURED PARAMETER: Kd (µM)
Could you give me the number in µM? Just the number is fine.

Returns the measured Kd for the input compound. Input: Nc1nc2c(ncn2[C@@H]2O[C@H](COP(=O)(O)OP(=O)(O)OP(=O)(O)O)[C@@H](O)[C@H]2O)c(=O)[nH]1
0.243

----------
Known inhibition at 20 µM of a selection of molecules
target: Rho-A (Homo sapiens (Human)); experiment: Rho inhibition assay (labeled GTP); assay type: binding; details: read-out: Rho-A % Inh.
Sequence (P61586 whole entry): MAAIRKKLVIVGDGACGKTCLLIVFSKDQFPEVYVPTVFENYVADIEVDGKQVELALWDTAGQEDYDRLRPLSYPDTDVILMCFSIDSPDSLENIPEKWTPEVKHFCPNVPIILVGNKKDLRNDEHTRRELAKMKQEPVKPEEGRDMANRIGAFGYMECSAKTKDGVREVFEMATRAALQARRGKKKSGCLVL

MOLECULE	inhibition at 20 µM
O=C(c1csc2c(O)nc(-c3ccccn3)nc12)N1CCNC(c2cn[nH]c2)C1 (stereo not drawn) [drawing 3730]	76 to 100%
Oc1nc(-c2ccccn2)nc2c1c(-c1ccccc1)nn2-c1ccccn1 [drawing 3857]	51 to 75%
COCCCNc1nc(-c2nccn2C)nc2sc(-c3ccccc3)c(-c3ccccc3)c12 [drawing 3888]	51 to 75%
Oc1nc(-c2ccccn2)nc2c(-c3cc(CN4CCCC4)ccc3F)csc12 [drawing 3821]	76 to 100%
O=C(CCn1ccnc1)Nc1nc(-c2ccccn2)nc2sccc12 [drawing 3761]	76 to 100%
Cc1sc2c(N)nc(-c3ccccn3)nc2c1Br [drawing 3765]	25 to 50%
O=C(c1csc2c(O)nc(-c3ccccn3)nc12)N1CCN(Cc2ccccc2)CC1 [drawing 3651]	76 to 100%
CN(CCc1cccc(C#N)c1)C(=O)c1csc2nc(-c3ccccn3)nc(N3CCOCC3)c12 [drawing 3677]	51 to 75%

What value of inhibition at 20 µM has been reported for the following molecule? Oc1nc(-c2ccccn2)nc2c(-c3ccccn3)csc12 [drawing 3768]
51 to 75%

----------
test system: IL6 production in RAW 264.7 macrophage cell line; assay: Mouse IL6 quantification assay (LPS-stimulated macrophages, ELISA); format: cell-based; settings: RAW264.7, RAW 264.7 murine leukemia virus transformed macrophage cell lines, LPS stimulation, read-out: IL-6 % Inhibition at 30 μM
Reported inhibition at 30 µM values are given for each entry in this list.

COMPOUND	inhibition at 30 µM
Cn1ccnc1-c1nc(O)c2c(-c3ccccc3)c(-c3ccccc3)sc2n1 [drawing 2363]	1 to 25%

As a next step, examine the compound that follows.
Query: inhibition at 30 µM; subject: CC(O)CNc1nc(-c2ccccn2)nc2scc(-c3ccccc3)c12 (stereo not drawn) [drawing 2042]
26 to 50%

----------
system: MIA-PACA2 pancreatic cancer cell lines; test: Cell proliferation assay (CellTiter 96 AQueous One); assay type: cell-based; details: Homo sapiens, MIA PaCa-2; at 30 μM, MIA-PACA2
MEASURED PARAMETER: inhibition at 30 µM

MOLECULE	MEASURED PARAMETER	TEST RESULT
COc1cn(-c2ccccc2)nc1C(=O)Nc1nnc(-c2ccccn2)[nH]1 [drawing 1466]	inhibition at 30 µM	51 to 75%
Cc1cccc(OCC(=O)Nc2nnc(-c3ccccn3)[nH]2)c1 [drawing 1464]	inhibition at 30 µM	51 to 75%
Oc1nc(-c2ccccn2)nc2c1CCCN2 [drawing 1542]	inhibition at 30 µM	1 to 25%

Read the next record carefully.
Kindly state the measured inhibition at 30 µM obtained for O=C(Nc1nnc(-c2ccccn2)[nH]1)c1ccn(-c2cccc(Cl)c2)n1 [drawing 1468] with MIA-PACA2 pancreatic cancer cell lines.
76 to 100%

----------
Recorded inhibition at 20 µM by entry
biological target: KRas G12D/Q61H double mutant (Homo sapiens (Human), UniProt P01116, G12D/Q61H); experiment: Ras GTP binding domain inhibition assay (labeled GTP); details: 20 μM compound; read-out: % Inhibition at 20 μM KRas G12D Q61H

Entry under review: Nc1nc(O)c2scc(C(=O)N(CCO)CCOCCO)c2n1 [drawing 2669] . Reported inhibition at 20 µM?
1 to 25%

Could you tell me which inhibition at 20 µM is on file for Oc1nc(-c2ccccn2)nc2[nH]cnc12 [drawing 2696] ?
25 to 50%

Need inhibition at 20 µM, item CC1=C(c2ccccc2)C2C(=O)NC(c3cnccn3)=NC2S1 (stereo not shown)
25 to 50%

----------
target: Rac-1 (Homo sapiens (Human)); assay: MicroScale Thermophoresis (MST), GTP affinity for binding domain
MEASURED PARAMETER: pKd
pKd is defined as minus the log10 of a concentration measured in mol/L.

Requested read-out: pKd. Entry: Nc1nc2c(ncn2[C@@H]2O[C@H](COP(=O)(O)OP(=O)(O)OP(=O)(O)O)[C@@H](O)[C@H]2O)c(=O)[nH]1
6.78

----------
biological target: KRas Q61H mutant (Homo sapiens (Human), UniProt P01116, Q61H); experiment: Ras GTP binding domain inhibition assay (labeled GTP); details: 20 μM compound; read-out: % Inhibition at 20 μM KRas Q61H
Sequence (P01116-2 other isoform, or with tags, fused parts or gaps Q61H): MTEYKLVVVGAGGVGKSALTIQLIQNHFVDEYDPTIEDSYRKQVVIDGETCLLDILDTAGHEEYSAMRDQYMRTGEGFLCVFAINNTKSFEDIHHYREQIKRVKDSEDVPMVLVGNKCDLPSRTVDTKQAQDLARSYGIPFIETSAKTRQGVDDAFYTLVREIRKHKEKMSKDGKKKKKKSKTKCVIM
// inhibition at 20 µM lookup, one value per entry

Here are 8 compounds together with their reported answers.
COMPOUND	TEST RESULT
O=C(NCCc1ccncc1)c1csc2nc(-c3ccccn3)nc(N3CCOCC3)c12 [drawing 2779]	51 to 75%
Oc1nc(-c2ccccn2)nc2c(-c3ccccc3F)csc12 [drawing 2868]	51 to 75%
O=C(c1csc2c(O)nc(-c3ccccn3)nc12)N1CCOC(c2ccccc2Cl)C1 (stereo not drawn) [drawing 2769]	76 to 100%
Oc1nc(-c2ccccn2)nc2c(-c3cccc4c3OCO4)csc12 [drawing 2849]	51 to 75%
N#Cc1cccc(N2CCN(C(=O)c3csc4c(O)nc(-c5ccccn5)nc34)CC2)c1 [drawing 2755]	25 to 50%
N#Cc1ccc(CCNC(=O)c2csc3nc(-c4ccccn4)nc(N4CCOCC4)c23)cc1 [drawing 2750]	1 to 25%
COc1ncc(CCNC(=O)c2csc3nc(-c4ccccn4)nc(N4CCOCC4)c23)cn1 [drawing 2748]	25 to 50%
COc1cnc(CN)[nH]c1=O [drawing 2801]	25 to 50%

Name the recorded inhibition at 20 µM for Oc1nc(-c2ccccn2)nc2c(-c3ccccc3OC3CCCCC3)csc12 [drawing 2866] .
51 to 75%

So what does the record say about inhibition at 20 µM for COc1ccc(CCNC(=O)c2csc3nc(-c4ccccn4)nc(N4CCOCC4)c23)cn1 [drawing 2745] ?
51 to 75%

----------
biological target: KRas G12D mutant protein (Homo sapiens (Human), UniProt P01116, G12D); assay: Ras GTP binding domain inhibition assay (labeled GTP); conditions: 20 μM compound; KRas G12D; read-out: % Inhibition at 20 μM of K-Ras mutant and wild-type protein, KRas G12D
Sequence (P01116-2 other isoform, or with tags, fused parts or gaps G12D): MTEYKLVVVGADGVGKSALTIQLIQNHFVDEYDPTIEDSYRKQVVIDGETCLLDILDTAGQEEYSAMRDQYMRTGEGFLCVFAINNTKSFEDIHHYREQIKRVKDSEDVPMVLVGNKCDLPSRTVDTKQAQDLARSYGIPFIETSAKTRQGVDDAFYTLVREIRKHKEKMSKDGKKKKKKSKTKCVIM
MEASURED PARAMETER: inhibition at 20 µM

Item under review: Cn1ccnc1-c1nc(O)c2scc(-c3ccc(F)cc3F)c2n1 [drawing 3616] . Reported inhibition at 20 µM?
25 to 50%

Any idea what its inhibition at 20 µM is? The molecule is CC(O)CNc1nc(-c2nccn2C)nc2sc(-c3ccccc3)c(-c3ccccc3)c12 (stereo not drawn) [drawing 3569]
1 to 25%

# get_value(readout='inhibition at 20 µM', item= COc1cnc(-c2cnc[nH]2)nc1O [drawing 3516] )
51 to 75%

----------
target: KRas G12D/Q61H double mutant (Homo sapiens (Human), UniProt P01116, G12D/Q61H); test: Ras GTP binding domain inhibition assay (labeled GTP); conditions: 20 μM compound; KRas G12D/Q61H double mutant; read-out: % Inhibition at 20 μM of K-Ras mutant and wild-type protein, KRas G12D Q61H
MEASURED PARAMETER: inhibition at 20 µM

MOLECULE	TEST RESULT
COc1cccc(CN(C)S(=O)(=O)N(C)Cc2ccc(F)cc2)c1	25 to 50%
CN(C)S(=O)(=O)c1ccc(OCCn2c(=O)c(N3CCCCC3)c(N)n(C)c2=O)cc1	1 to 25%
CCOCCOc1ccc(Br)cc1CNCc1cccc(N2CC=CC2)c1	25 to 50%
C=CCc1cc(OCC)ccc1OCC(=O)NCc1ccc(OC)cc1	25 to 50%
COc1ccc(COCC(CNC(=O)c2cc(C)cc(C)c2)OC(=O)c2cc(C)cc(C)c2)cc1 (stereo not shown)	25 to 50%

Please report the recorded inhibition at 20 µM for COC(=O)c1cc(NCc2cnc(C(C)(C)C)s2)ccc1Br .
25 to 50%

What value of inhibition at 20 µM has been reported for the following molecule? Cc1sc2nc(-c3ccccn3)nc(N)c2c1Br [drawing 3484]
25 to 50%

Any idea what inhibition at 20 µM was measured for CN(Cc1ccc(S(=O)(=O)N(C)C)o1)c1ccccc1-c1ccccc1 ?
1 to 25%

Requested field: inhibition at 20 µM. Item: CCOC(=O)c1c(-c2ccc(OC)cc2)oc2ccc(OCC=C(C)C)cc12
25 to 50%

What value of inhibition at 20 µM has been reported for the following molecule? COc1ccc(S(=O)(=O)N2CCCCCC2)cc1C(=O)NCCc1ccccc1C
1 to 25%
